Experiment: in vitro
Conditions: CD-1, mouse, mouse liver microsomes, pH 7.4
measure_name: half-life at 1 μmol/L (min)
Give the value in min but do not write min after it.

Please look up its half-life at 1 μmol/L: NC(=O)c1cn(-c2ccnc(N)n2)c2cc(C#CC3(O)CCCCC3)ccc12
23.7

----------
Molecular target: PAK4 (Homo sapiens, UniProt O96013)
Sequence (O96013 whole entry): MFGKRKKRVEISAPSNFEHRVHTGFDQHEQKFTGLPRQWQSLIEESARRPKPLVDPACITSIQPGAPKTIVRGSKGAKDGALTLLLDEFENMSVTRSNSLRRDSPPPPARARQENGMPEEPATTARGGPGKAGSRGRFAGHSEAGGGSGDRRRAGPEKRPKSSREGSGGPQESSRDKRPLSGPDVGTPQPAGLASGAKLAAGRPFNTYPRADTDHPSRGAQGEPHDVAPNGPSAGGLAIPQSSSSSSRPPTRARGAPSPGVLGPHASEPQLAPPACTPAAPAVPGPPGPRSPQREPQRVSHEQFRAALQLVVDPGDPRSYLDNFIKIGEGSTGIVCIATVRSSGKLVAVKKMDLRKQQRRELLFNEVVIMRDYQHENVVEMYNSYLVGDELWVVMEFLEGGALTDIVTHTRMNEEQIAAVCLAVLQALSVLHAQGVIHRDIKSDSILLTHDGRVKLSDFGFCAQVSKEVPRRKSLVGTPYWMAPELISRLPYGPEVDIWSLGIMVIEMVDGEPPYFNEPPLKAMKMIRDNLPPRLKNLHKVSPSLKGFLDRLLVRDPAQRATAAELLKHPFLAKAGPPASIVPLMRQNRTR
Assay: PAK4 HTRF assay
Assay type: biochemical
Settings: PAK4 Ki, HTRF; average of two independent experiments
measure_name: Ki (nM)
Give the value in nM but do not write nM after it.

Please look up its Ki: Nc1nccc(-n2cc(C(=O)N[C@@H]3CCCNC3)c3ccc(C#CC4(O)CCCCC4)cc32)n1
5.6

Param item: OC1(C#Cc2ccc3ccn(-c4ccnc(NCc5cccs5)n4)c3c2)CCCCC1
7450

Param item: Nc1ccn(C(=O)c2cn(-c3ccnc(N)n3)c3cc(C#CC4(O)CCCCC4)ccc23)n1
94

Param item: Nc1nccc(-n2ccc3ccc(C#CC4(O)CCCCC4)cc32)n1
66

Param item: Nc1nccc(-n2cc(C(=O)Nc3nccs3)c3ccc(C#CC4(O)CCCCC4)cc32)n1
243

Param item: Nc1nccc(-n2ccc3ncc(C#CC4(O)CCCCC4)cc32)n1
36

Param item: OC1(C#Cc2ccc3ccn(-c4ccnc(Nc5ccccc5)n4)c3c2)CCCCC1
217

Param item: Nc1nccc(-n2ccc3cc(F)c(C#CC4(O)CCCCC4)cc32)n1
82

Param item: OC1(C#Cc2ccc3ccn(-c4ccnc(NCc5ccccc5)n4)c3c2)CCCCC1
623

Param item: Nc1nccc(-n2ncc3ccc(C#CC4(O)CCCCC4)cc32)n1
40

Param item: Nc1nccc(-n2cc(C(=O)N3CCOCC3)c3ccc(C#CC4(O)CCCCC4)cc32)n1
119

Param item: Nc1nccc(-n2cc(C(=O)NC3CCNCC3)c3ccc(C#CC4(O)CCCCC4)cc32)n1
8.3

Param item: Nc1nccc(-n2cc(C(=O)N3CCNC(=O)C3)c3ccc(C#CC4(O)CCCCC4)cc32)n1
18.1

Param item: Nc1nccc(-n2cc(C(=O)N3CCC[C@@H](N)C3)c3ccc(C#CC4(O)CCCCC4)cc32)n1
3.4

Param item: Cc1cccc(Nc2nccc(-n3ccc4ccc(C#CC5(O)CCCCC5)cc43)n2)c1
212

Param item: O=[N+]([O-])c1cccc(Nc2nccc(-n3ccc4ccc(C#CC5(O)CCCCC5)cc43)n2)c1
157

Param item: OC1(C#Cc2ccc3ccn(-c4ccnc(Nc5cccc(Cl)c5)n4)c3c2)CCCCC1
105
